Tested on: LOC_OS01G02750-cb003;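 note: purified Escherichia coli-expressed rice kinase domain construct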
Assay: thermal shift delta Tm vs DMSO control; higher = stronger stabilization (binding)
Settings: 12.5 µM; protein concentration 2 µM
Counter-ions that a name gives are not always drawn.
attribute.measured: thermal shift delta Tm (°C)
# output: bare number, implied unit °C

Below, each entry is followed by its recorded thermal shift delta Tm result.
compound	display.unit	thermal shift delta Tm
CC#CC(=O)N1CCC[C@H]1c1nc(-c2ccc(C(=O)Nc3ccccn3)cc2)c2c(N)nccn12	°C	0.55
Cn1cnc2c(F)c(Nc3ccc(Br)cc3F)c(C(=O)NOCCO)cc21	°C	0.45

[Q] So what does the record say about thermal shift delta Tm for Cc1cc(O)c2c(c1)C(=O)c1cccc(O)c1C2=O ?
[A] -3.42

[Q] # lookup: thermal shift delta Tm of Cc1ccc(NC(=O)c2ccc(CN3CCN(C)CC3)cc2)cc1Nc1nccc(-c2cccnc2)n1 [Imatinib Mesylate (STI571)]
[A] 0.88

[Q] Field request: thermal shift delta Tm | item: Cc1ccc(-n2nc(C(C)(C)C)cc2NC(=O)NCc2cc(F)ccc2Oc2ccc3c(cnn3CCO)c2)cc1
[A] 1.41

[Q] # input compound: CCCS(=O)(=O)Nc1ccc(F)c(C(=O)c2c[nH]c3ncc(Cl)cc23)c1F ; wanted: its thermal shift delta Tm
[A] 2.88

[Q] For the compound CS(=O)(=O)CCNCc1ccc(-c2ccc3ncnc(Nc4ccc(OCc5cccc(F)c5)c(Cl)c4)c3c2)o1 [Lapatinib] , what thermal shift delta Tm is on record?
[A] 7.61

[Q] Bench note: what thermal shift delta Tm did COc1ncc(-c2ccc3nccc(-c4ccnnc4)c3c2)cc1NS(=O)(=O)c1ccc(F)cc1F show?
[A] 1.21

[Q] Tell me the measured thermal shift delta Tm of COc1ccc(-c2nc(N3CCOCC3)c3sc(CN(C)c4ncc(C(=O)NO)cn4)cc3n2)cn1 , please.
[A] 1.67

[Q] // lookup thermal shift delta Tm for CC1(C)OCCn2c1nc1c(N3CCOCC3)nc(-c3cnc(N)nc3)nc12
[A] 0.54
